Kindly supply the reported Inhibition values for the records listed here.
- Tested on: Plasmodium falciparum
- EXPERIMENTAL DETAILS: GSK_TCMDC: Inhibition of Plasmodium falciparum 3D7 in whole red blood cells, using parasite LDH activity as an index of growth. Test compounds present at 2uM
- Type: functional
Numeric only. Scale: %

Inquiry: Retrieve Inhibition on Plasmodium falciparum; query COc1cccc(-c2cc(C(=O)Nc3ccc4[nH]c(-c5ccccc5)nc4c3)[nH]n2)c1.O=C(O)C(F)(F)F
Reply text: 100

Inquiry: Retrieve Inhibition on Plasmodium falciparum; query Clc1ccc2nc(-c3cccnc3)[nH]c2c1
Reply text: 92

Inquiry: Retrieve Inhibition on Plasmodium falciparum; query Nc1ncc(-c2ccc(S(=O)(=O)Nc3ccc(C(=O)N[C@@H](CCC(=O)O)C(=O)O)cc3)cc2)c(=O)[nH]1
Reply text: 99

Inquiry: Retrieve Inhibition on Plasmodium falciparum; query CCOC(=O)c1ccc(OCCOc2ccccc2)cc1
Reply text: 99

Inquiry: Retrieve Inhibition on Plasmodium falciparum; query CCCC(C)N(Cc1ccc(C(C)(C)C)cc1)C(=O)c1cccc(C#N)c1 (stereo unspecified)
Reply text: 86

Inquiry: Retrieve Inhibition on Plasmodium falciparum; query CC(=O)c1sc(Cc2nc3ccccc3s2)nc1C
Reply text: 94

Inquiry: Retrieve Inhibition on Plasmodium falciparum; query Cc1nc(-c2cccc3c(NC(=O)N4CCc5cc6nccc(N7CCN(C)CC7)c6cc54)cccc23)no1.Cl
Reply text: 100

Inquiry: Retrieve Inhibition on Plasmodium falciparum; query Cc1noc(C)c1-c1cccc(CNCc2cccc(-c3cccc(-c4nc5cccc(C)c5[nH]4)c3)c2)c1.O=C(O)C(F)(F)F
Reply text: 100

Inquiry: Retrieve Inhibition on Plasmodium falciparum; query O=C(Nc1cccc(-c2cccc(-c3nc4cc(C(F)(F)F)ccc4[nH]3)c2)c1)c1cccnc1Cl
Reply text: 95

Inquiry: Retrieve Inhibition on Plasmodium falciparum; query Cc1ccc2nc(C)cc(Nc3ccccc3O)c2c1.Cl
Reply text: 96

Inquiry: Retrieve Inhibition on Plasmodium falciparum; query O=C(/C=C/c1ccc(Cl)c(Cl)c1)N1CCN(C(=O)Nc2ccc(F)c(Cl)c2)CC1
Reply text: 97

Inquiry: Retrieve Inhibition on Plasmodium falciparum; query O=c1cc(NCCCNC2CCOc3c(Cl)cccc32)[nH]c2ccccc12 (stereo unspecified)
Reply text: 96

Inquiry: Retrieve Inhibition on Plasmodium falciparum; query Cc1c(CCNC(=O)CCCN2CC(C)CC(C)C2)c2ccccc2n1C.Cl (stereo unspecified)
Reply text: 87

Inquiry: Retrieve Inhibition on Plasmodium falciparum; query CN(C)c1ccc(-c2ccc(C(=O)NC3CCN(Cc4ccc(F)cc4)CC3)s2)cc1.O=C(O)C(F)(F)F
Reply text: 87

Inquiry: Retrieve Inhibition on Plasmodium falciparum; query Cc1cc(N(C)C2CCN(CC3CCCCC3)C2)nc(Nc2ccc(Cl)cc2)n1 (stereo unspecified)
Reply text: 98

Inquiry: Retrieve Inhibition on Plasmodium falciparum; query Cc1cccc2nc(-c3ccc(-c4ccc(CN5CCC(CO)CC5)cc4)s3)[nH]c12.O=C(O)C(F)(F)F
Reply text: 100

---

- Test system: Plasmodium falciparum
- EXPERIMENTAL DETAILS: GSK_TCMDC: Inhibition of Plasmodium falciparum Dd2 in whole red blood cells, using parasite LDH activity as an index of growth. Test compounds present at 2uM
- Assay type: functional
Quick rule for you: Inhibition under 60% gets 1, anything else gets -1.

Inquiry: Say whether its Inhibition is strictly beneath 60%. Entry: COC(=O)C(=O)c1c(-c2ccccc2)c(-c2ccc(OC)c(OC)c2)c2c3cc(OC)c(OC)cc3ccn12
Reply text: -1

Inquiry: Say whether its Inhibition is strictly beneath 60%. Entry: COc1cc(F)c2nccc([C@@H](O)CN3CCC(NCc4ccc5c(n4)NC(=O)CS5)CC3)c2c1
Reply text: 1

Inquiry: Say whether its Inhibition is strictly beneath 60%. Entry: CC(C)(CNCc1ccccc1)c1nc(-c2ccc(Cl)c(O)c2)c(-c2ccncc2)[nH]1.Cl
Reply text: -1

Inquiry: Say whether its Inhibition is strictly beneath 60%. Entry: Cc1ccc(Cc2c[nH]c(NCCSCc3ccc(CN(C)C)s3)nc2=O)cn1
Reply text: 1

Inquiry: Say whether its Inhibition is strictly beneath 60%. Entry: Cc1ccc(NC(=O)Nc2ccc(Cl)c(C(F)(F)F)c2)cc1-c1ccc(C(=O)NCCN2CCOCC2)cc1
Reply text: 1

Inquiry: Say whether its Inhibition is strictly beneath 60%. Entry: COc1ccc2[nH]ccc(=NN=Cc3cccc(Cl)c3)c2c1
Reply text: -1

Inquiry: Say whether its Inhibition is strictly beneath 60%. Entry: COc1ccc2nccc([C@@H](O)CN3CCC(NCc4ccc5cccc(O)c5n4)CC3)c2c1.O=C(O)C(=O)O
Reply text: 1

Inquiry: Say whether its Inhibition is strictly beneath 60%. Entry: COc1ccc(-c2cn3c(C(=O)Nc4ccccc4Cl)c(-c4ccccc4)c4c3n2CCCC4)cc1
Reply text: 1

Inquiry: Say whether its Inhibition is strictly beneath 60%. Entry: COc1cc(N(Cc2ccccc2C)S(=O)(=O)Cc2ccccc2[N+](=O)[O-])c(OC)cc1Cl
Reply text: 1

Inquiry: Say whether its Inhibition is strictly beneath 60%. Entry: COc1ccc2nccc([C@H](O)CN3CCC(NCc4nc5cccc(F)c5[nH]4)CC3)c2c1.O=C(O)C(=O)O
Reply text: 1

Inquiry: Say whether its Inhibition is strictly beneath 60%. Entry: COc1ccc(CNC2Cc3ccccc3C2)cc1-c1ccc(S(=O)(=O)NCCN2CCCC2)s1.O=C(O)C(F)(F)F
Reply text: -1

Inquiry: Say whether its Inhibition is strictly beneath 60%. Entry: Cc1cccnc1Nc1nc(-c2ccccn2)cs1
Reply text: -1

Inquiry: Say whether its Inhibition is strictly beneath 60%. Entry: COc1cc(OC)cc(-c2nn(-c3ccc([N+](=O)[O-])cc3C#N)c(=S)n2CC2CCCO2)c1 (stereo not given)
Reply text: -1

Inquiry: Say whether its Inhibition is strictly beneath 60%. Entry: O=C(/C=C/c1cccc(OC(F)(F)F)c1)NCCCCCN1CCC(c2c[nH]c3ccccc23)CC1
Reply text: 1

Inquiry: Say whether its Inhibition is strictly beneath 60%. Entry: Oc1ccccc1N1CCN(c2ccc(-c3nc4ccccc4[nH]3)cn2)CC1
Reply text: 1

Inquiry: Say whether its Inhibition is strictly beneath 60%. Entry: O=C(/C=C/c1ccc(Cl)c(Cl)c1)NCCCCCN1CCC(n2c(=O)[nH]c3ccccc32)CC1
Reply text: 1

Inquiry: Say whether its Inhibition is strictly beneath 60%. Entry: Fc1ccc(Nc2ccnc3cc(-c4ccc(CNCCN5CCOCC5)o4)ccc23)c(Cl)c1
Reply text: -1

Inquiry: Say whether its Inhibition is strictly beneath 60%. Entry: Br.CCCOc1ccc(CCCON2C(N)=NC(N)=NC2(C)C)cc1
Reply text: -1

Inquiry: Say whether its Inhibition is strictly beneath 60%. Entry: NC(=O)c1ccc(NCC(=O)Nc2cccc(-c3cccc(-c4nc5ccccc5[nH]4)c3)c2)cc1
Reply text: 1

Inquiry: Say whether its Inhibition is strictly beneath 60%. Entry: CS(=O)(=O)c1ccc(-c2cncc(Cl)n2)cc1
Reply text: -1

Inquiry: Say whether its Inhibition is strictly beneath 60%. Entry: CN1CCN(Cc2nc(-c3ccc4c(Nc5ccc(F)c(O)c5)ccnc4c3)cs2)CC1
Reply text: -1

Inquiry: Say whether its Inhibition is strictly beneath 60%. Entry: Cc1noc(C)c1-c1cccc(CNCc2cccc(-c3cccc(-c4nc5cccc(C)c5[nH]4)c3)c2)c1.O=C(O)C(F)(F)F
Reply text: -1

Inquiry: Say whether its Inhibition is strictly beneath 60%. Entry: CCCCNc1c(C(=O)OCC)c(C)nc2c1[nH]c1ccccc12
Reply text: 1

Inquiry: Say whether its Inhibition is strictly beneath 60%. Entry: O=C(C=Cc1ccc(F)cc1)N1CCN(S(=O)(=O)c2ccc(Cl)cc2)CC1
Reply text: -1

Inquiry: Say whether its Inhibition is strictly beneath 60%. Entry: Nc1ccc2[nH]cc(C3CCN(CC4CCC(NC(=O)/C=C/c5ccccc5Cl)CC4)CC3)c2n1 (stereo not given)
Reply text: 1

Inquiry: Say whether its Inhibition is strictly beneath 60%. Entry: Cc1nc2ccccc2c(=O)n1NCc1ccc(Cl)c(Cl)c1
Reply text: -1

Inquiry: Say whether its Inhibition is strictly beneath 60%. Entry: c1ccc2sc(Sc3ncnc4sccc34)nc2c1
Reply text: -1

Inquiry: Say whether its Inhibition is strictly beneath 60%. Entry: Cc1ccc(Cn2cnc(N3CC(C)NC(C)C3)cc2=O)cc1NC(=O)Nc1ccc(-c2ccccc2)cc1.O=C(O)C(F)(F)F (stereo not given)
Reply text: 1

Inquiry: Say whether its Inhibition is strictly beneath 60%. Entry: CCN(CC)CCOc1ccc(Nc2ncc3cc(-c4c(Cl)cccc4Cl)c(=O)n(C)c3n2)cc1
Reply text: -1

Inquiry: Say whether its Inhibition is strictly beneath 60%. Entry: Cl.O=C(c1ccc(Cl)cc1)C1CCN(CCCOc2ccc3c(c2)CCNCC3)CC1
Reply text: 1

---

- Test system: Plasmodium falciparum
- EXPERIMENTAL DETAILS: GSK_TCMDC: Inhibition of Plasmodium falciparum 3D7 in whole red blood cells, using parasite LDH activity as an index of growth. Test compounds present at 2uM
- Type: functional
Kindly supply the reported Inhibition values for the records listed here.
Numeric only. Scale: %

Inquiry: Identify Inhibition associated with the compound Cc1nn(-c2ccccc2)c2sc(C(=O)N(CCCN(C)C)c3nc(-c4ccccc4)cs3)cc12.Cl
Reply text: 95

Inquiry: Identify Inhibition associated with the compound CN(C)CCN(Cc1ccccc1-c1ccc(CNCCc2ccccc2)cc1)C(=O)c1ccccc1.O=C(O)C(F)(F)F
Reply text: 95

Inquiry: Identify Inhibition associated with the compound COc1ccc(Nc2ncc(OC)c(Nc3ccccc3C(N)=O)n2)cc1N1CCN(C)CC1.O=CO
Reply text: 100
